Origin of the recorded values: patent US7534785B2

Quick record of IC50 values for Met kinase (Homo sapiens).

Here's what some known entries look like.
CNCCNC(=O)Nc1cccc(CN2N=C(c3ccc(C#N)cc3)CSC2=O)c1    10 to 1000 nM
CCN(CC)CCCNC(=O)Nc1cccc(CN2N=C(c3ccc(Cl)cc3)CSC2=O)c1    10 to 1000 nM

The reported IC50 value, Met kinase (Homo sapiens), for `CCNC(=O)Nc1cccc(CN2N=C(c3cc(Cl)ccc3O)CSC2=O)c1` reads 10 to 1000 nM

The reported IC50 value, Met kinase (Homo sapiens), for CN1CCC(CNC(=O)Nc2cccc(CN3N=C(c4ccc(Cl)cc4)CSC3=O)c2)C1 (stereo not shown) reads 10 to 1000 nM
